This section presents compounds with their documented solubility values.
# assay_notes: Solubility of compound in phosphate buffer at pH 6.5 after one night incubation by HPLC-UV method
# Assay type: physicochemical
reported_endpoint: solubility

1. COC(=O)C1=C(CN2CCOC[C@H]2C(=O)O)N=C(c2nccs2)N[C@H]1c1ccc(F)cc1Cl | > 666 µg/mL
2. COC(=O)C1=C(CN2CCSCC2C(=O)O)NC(c2nccs2)=N[C@H]1c1ccc(F)cc1Cl (single isomer, unassigned) | 584 µg/mL
3. COC(=O)C1=C(C)NC(c2nccs2)=N[C@H]1c1ccc(F)cc1Cl | 16 µg/mL
4. CCOC(=O)C1=C(CN2CCOC[C@H]2C(=O)O)NC(c2nccs2)=N[C@H]1c1cccc(F)c1Cl | > 679 µg/mL
5. COC(=O)C1=C(CN2CCOC[C@@]2(C)C(=O)O)NC(c2nccs2)=N[C@H]1c1ccc(F)cc1Cl | 600 µg/mL
6. COC(=O)C1=C(CN2CCOC(C(=O)O)C2)NC(c2nccs2)=N[C@H]1c1ccc(F)cc1Cl (stereo partly drawn) | > 592 µg/mL
7. COC(=O)C1=C(CN2CCOC[C@H]2C(N)=O)NC(c2nccs2)=N[C@H]1c1ccc(F)cc1Cl | 205 µg/mL
8. COC(=O)C1=C(CN2CCOC[C@H]2C(=O)OC)NC(c2nccs2)=N[C@H]1c1ccc(F)cc1Cl | < 1 µg/mL
